tested on: redroot pigweed (Amaranthus retroflexus, AMARE); test: Post-emerge test, greenhouse herbicide activity screening; type: in vivo; conditions: 63 g ai/ha; post-emerge; 14 days after application; rating scale 0-100 (0 no damage, 100 complete death)
OBSERVATION TYPE: Post-emerge Herbicidal Activity AMARE (phytotoxicity rating)
Enter the number alone.

Reference set (5 entries):
COc1c(Cl)cc(F)c(-n2c(=O)cc(C(F)(F)F)n(C)c2=O)c1NNC(=O)Nc1ccc(F)cc1F; 20
CCOC(=O)NNc1c(OC)c(Cl)cc(F)c1-n1c(=O)cc(C(F)(F)F)n(C)c1=O; 50
CCOc1c(Cl)cc(F)c(-n2c(=O)cc(C(F)(F)F)n(C)c2=O)c1Cl; 30
COc1c(Cl)cc(F)c(-n2c(=O)cc(C(F)(F)F)n(C)c2=O)c1Sc1ccc2ccccc2c1; 20
COc1c(Cl)cc(F)c(-n2c(=O)cc(C(F)(F)F)n(C)c2=O)c1SCCO; 10

For reference, reported Post-emerge Herbicidal Activity AMARE (phytotoxicity rating) for `COc1c(Cl)cc(F)c(-n2c(=O)cc(C(F)(F)F)n(C)c2=O)c1NN=C(C)C` stands at 95

Lab note: `Cn1c(C(F)(F)F)cc(=O)n(-c2ccc(Cl)cc2/C=C/c2ccc3ccccc3c2)c1=O` gave Post-emerge Herbicidal Activity AMARE (phytotoxicity rating) of 20

Record CCOC(=O)C(Cl)Cc1cc(Cl)cc(F)c1-n1c(=O)cc(C(F)(F)F)n(C)c1=O (centres unmarked) . Reported Post-emerge Herbicidal Activity AMARE (phytotoxicity rating): 70

====

test system: field corn (Zea mays L., var. Dekalb 535, CORN); assay: Post-emerge test, crop safety; format: in vivo; details: post-emerge, 63 g ai/ha, 14 days after application, rating scale 0-100
Just a reminder that ties go to not satisfied: only CORN phytotoxicity rating (crop damage) strictly below 10 counts as satisfied.

Study these solved cases before continuing.
COc1c(Br)cc(F)c(-n2c(=O)cc(C(F)(F)F)n(C)c2=O)c1NC(=O)C=Cc1ccccc1 [2-177]; not satisfied
COc1c(Cl)cc(F)c(-n2c(=O)cc(C(F)(F)F)n(C)c2=O)c1NC(=O)c1c(C)cccc1C; satisfied
Cn1c(C(F)(F)F)cc(=O)n(-c2c(F)cc(OC(F)F)cc2NC(=O)c2ccc3ccccc3c2)c1=O; not satisfied
COc1c(Cl)cc(F)c(-n2c(=O)cc(C(F)(F)F)n(C)c2=O)c1NC(=O)Cc1ccccc1; satisfied

Now let's try a different one.
Request: # strict comparison: is reported CORN phytotoxicity rating (crop damage) < 10? input = `CCOC(=O)CSCC(=O)Nc1c(OC)c(Cl)cc(F)c1-n1c(=O)cc(C(F)(F)F)n(C)c1=O`
Response: satisfied

====

The following compounds are listed with their measured pest or weed control at 63 g/ha values.
test system: ivyleaf morningglory (Ipomoea hederacea, IPOHE); test: Post-emerge test, greenhouse herbicide activity screening; assay type: in vivo; conditions: Ipomoea, post-emergence, 336 h; post-emerge, 63 g ai/ha, phytotoxicity rating 0-100 at 14 days after application; read-out: Post-emerge Herbicidal Activity IPOHE
Give just the number in %; leave the unit off.

Answered examples (5):
Nc1c(O)c(Cl)cc(F)c1N1C(=O)C2=C(CCCC2)C1=O; 50
COc1c(Cl)cc(F)c(-c2nn(C)c(C(F)(F)F)c2Cl)c1NC(=O)C=Cc1ccccc1; 70
CC(C)Oc1c(Cl)cc(F)c(N2C(=O)C3=C(CCCC3)C2=O)c1N; 0
COc1c(Cl)cc(Cl)c(-n2nc(C)n(C(F)F)c2=O)c1NC(=O)c1ccc2ccccc2c1; 50
O=C(Nc1cc(Cl)ccc1N1C(=O)c2ccccc2C1=O)c1ccc2ccccc2c1; 50

Now take the following compound into account.
Item: `CC(C)Oc1c(Cl)cc(F)c(-n2nnn(CCCF)c2=O)c1N` | pest or weed control at 63 g/ha: 0

====

Catalogue of pest or weed control at 250 g/ha values
system: lambsquarters (Chenopodium album, CHEAL); assay: Post-emerge test, greenhouse herbicide activity screening; assay type: in vivo; details: Chenopodium album, post-emergence, 336 h; post-emerge, 250 g ai/ha, phytotoxicity rating 0-100 at 14 days after application; read-out: Post-emerge Herbicidal Activity CHEAL
Please respond with the number in % and leave the unit unwritten.

CC(C)Oc1c(Cl)cc(F)c(N2C(=O)C3=C(CCCC3)C2=O)c1N; 90
Cc1nn(-c2c(Cl)cc(Cl)c(N)c2N)c(=O)n1C(F)F; 60
Cc1nn(-c2c(F)cc(Cl)cc2NC(=O)c2ccc3ccccc3c2)c(=O)n1C(F)F; 90
COc1c(Cl)cc(Cl)c(-n2nc(C)n(C(F)F)c2=O)c1NC(=O)c1ccc2ccccc2c1; 90
Cc1nn(-c2c(Cl)cc(Cl)cc2NC(=O)c2ccc3ccccc3c2)c(=O)n1C(F)F; 100

Entry `CC(C)Oc1c(Cl)cc(F)c(-n2nnn(CCCF)c2=O)c1N` , pest or weed control at 250 g/ha reported as 10

Reported pest or weed control at 250 g/ha of `COc1c(Cl)cc(F)c(-c2nn(C)c(C(F)(F)F)c2Cl)c1NC(=O)C=Cc1ccccc1` : 100

====

test system: field corn (Zea mays L., var. Dekalb 535, CORN); assay: Post-emerge test, crop safety; type: in vivo; conditions: 250 g ai/ha; post-emerge; 14 days after application; rating scale 0-100
Overview of recorded Post-emerge Herbicidal Activity CORN (crop damage rating) for various molecules
Number only, no unit.

CCOc1c(Cl)cc(F)c(-n2c(=O)cc(C(F)(F)F)n(C)c2=O)c1Cl; 5

What the record says about `COc1c(Cl)cc(F)c(-n2c(=O)cc(C(F)(F)F)n(C)c2=O)c1NN=Cc1ccc2ccccc2c1` : Post-emerge Herbicidal Activity CORN (crop damage rating) is 90

For `COc1c(Cl)cc(F)c(-n2c(=O)cc(C(F)(F)F)n(C)c2=O)c1NNC(=O)Nc1ccc(F)cc1F` the molecule record lists Post-emerge Herbicidal Activity CORN (crop damage rating) as 55

Entry under test: `Cn1c(C(F)(F)F)cc(=O)n(-c2ccc(Cl)cc2/C=C/c2ccc3ccccc3c2)c1=O` . Its Post-emerge Herbicidal Activity CORN (crop damage rating) was 0

====

system: field corn (Zea mays L., var. Dekalb 535, CORN); assay: Pre-emerge test, crop safety; type: in vivo; details: 63 g ai/ha; rated 14 days after application; 0 = no damage, 100 = complete death
Reported Pre-emerge phytotoxicity rating (0-100), crop damage, CORN is given for each of the following molecules.
When you answer, write just the number.

Worked set:
COc1c(Cl)cc(F)c(-n2c(=O)cc(C(F)(F)F)n(C)c2=O)c1NC(=O)C=Cc1ccc(Cl)cc1; 0
COc1c(Cl)cc(F)c(-n2c(=O)cc(C(F)(F)F)n(C)c2=O)c1N(C(=O)C=Cc1ccccc1Cl)C(=O)C=Cc1ccccc1Cl; 0
COc1c(Cl)cc(F)c(-n2c(=O)cc(C(F)(F)F)n(C)c2=O)c1NC(=O)c1ccccc1Cl; 25
COc1c(Cl)cc(F)c(-n2c(=O)cc(C(F)(F)F)n(C)c2=O)c1NC(=O)c1ccc2c(c1)OCO2; 50

The reported value for `COc1c(Cl)cc(F)c(-n2c(=O)cc(C(F)(F)F)n(C)c2=O)c1NC(=O)c1cccc(F)c1F` in terms of Pre-emerge phytotoxicity rating (0-100), crop damage, CORN is 35

Reported Pre-emerge phytotoxicity rating (0-100), crop damage, CORN of `COc1c(Cl)cc(F)c(-n2c(=O)cc(C(F)(F)F)n(C)c2=O)c1NC(=O)c1ccc(Cl)c(Cl)c1` : 10

Entry under test: `COc1c(Cl)cc(F)c(-n2c(=O)cc(C(F)(F)F)n(N)c2=O)c1NC(=O)c1ccc(F)cc1F` . Its Pre-emerge phytotoxicity rating (0-100), crop damage, CORN was 10

Record `COc1c(Cl)cc(F)c(-n2c(=O)cc(C(F)(F)F)n(C)c2=O)c1NC(=O)COc1ccccc1` . Reported Pre-emerge phytotoxicity rating (0-100), crop damage, CORN: 20

`COc1c(Cl)cc(F)c(-n2c(=O)cc(C(F)(F)F)n(C)c2=O)c1NC(=O)c1ccc(Cl)cc1` yielded Pre-emerge phytotoxicity rating (0-100), crop damage, CORN of 80

====

Let's look at some compounds and their measured Pre-emerge Herbicidal Activity ABUTH.
system: velvetleaf (Abutilon theophrasti, ABUTH); assay: Pre-emerge test, greenhouse herbicide activity screening; format: in vivo; conditions: pre-emerge, rate 250 g ai/ha, phytotoxicity rating 0-100 at 14 days after application

// below: answered compounds
C#CCOc1c(Cl)cc(F)c(-n2nnn(CCCF)c2=O)c1N; 100
Cc1c(Cl)cc(F)c(-n2c(=O)cc(C(F)(F)F)n(C)c2=O)c1NC(=O)OCc1ccc(Cl)cc1Cl; 100
Cc1c(Cl)cc(F)c(-n2c(=O)cc(C(F)(F)F)n(C)c2=O)c1NC(=O)OCc1ccc(Cl)cc1; 70
COc1c(Cl)cc(F)c(-n2c(=O)n3n(c2=O)CCCC3)c1N; 100

Entry under test: `Cc1c(Cl)cc(F)c(-n2c(=O)cc(C(F)(F)F)n(C)c2=O)c1NC(=O)SCc1ccccc1` . Its Pre-emerge Herbicidal Activity ABUTH was 100

Given item `Nc1c(OC2CCCC2)c(Cl)cc(F)c1N1C(=O)C2=C(CCCC2)C1=O` , the value recorded as its Pre-emerge Herbicidal Activity ABUTH is 70
